target: T1, human FcRn/b2M (human, UniProt P61769 21-119, biotinylated); assay: SPR pH 6.0;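 further: surface plasmon resonance kinetics at 25 °C, diluted periplasmic extracts injected over immobilized ligand surfaces, 120 s association then 600–3600 s dissociation, running buffer containing 150 mM NaCl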
T1 construct: bought recombinant biotinylated protein (ACRO FCM-H82W4 or Immunitrack ITF01); also called hFcRn; hFcRn/hb2M
Value Kind: koff (s⁻¹)

T0263018B11 T57F (VHH, name in Kabat numbering, FLAG3-His6 tagged) VHH: EVQLVESGGGVVQPGGSLRLSCAASGFTFSSYAMYWVRQAPGKGLEWVSAISSGGGSFDYADSVKGRFTISRDNSKNTLYLQMNSLRPEDTALYYCAADTLYTSLTWYSYWGQGTLVTVSS ... 0.00099
T0263018B11 S30D (VHH, name in Kabat numbering, FLAG3-His6 tagged) VHH: EVQLVESGGGVVQPGGSLRLSCAASGFTFDSYAMYWVRQAPGKGLEWVSAISSGGGSTDYADSVKGRFTISRDNSKNTLYLQMNSLRPEDTALYYCAADTLYTSLTWYSYWGQGTLVTVSS ... 0.0032
T0263018B11 S101A (VHH, name in Kabat numbering, FLAG3-His6 tagged) VHH: EVQLVESGGGVVQPGGSLRLSCAASGFTFSSYAMYWVRQAPGKGLEWVSAISSGGGSTDYADSVKGRFTISRDNSKNTLYLQMNSLRPEDTALYYCAADTLYTSLTWYAYWGQGTLVTVSS ... 0.0017
T0263018B11 D58Y (VHH, name in Kabat numbering, FLAG3-His6 tagged) VHH: EVQLVESGGGVVQPGGSLRLSCAASGFTFSSYAMYWVRQAPGKGLEWVSAISSGGGSTYYADSVKGRFTISRDNSKNTLYLQMNSLRPEDTALYYCAADTLYTSLTWYSYWGQGTLVTVSS ... 0.01

(I) T0263018B11 T96Q (VHH, name in Kabat numbering, FLAG3-His6 tagged) VHH: EVQLVESGGGVVQPGGSLRLSCAASGFTFSSYAMYWVRQAPGKGLEWVSAISSGGGSTDYADSVKGRFTISRDNSKNTLYLQMNSLRPEDTALYYCAADQLYTSLTWYSYWGQGTLVTVSS
(II) T0263018B11 S52R (VHH, name in Kabat numbering, FLAG3-His6 tagged) VHH: EVQLVESGGGVVQPGGSLRLSCAASGFTFSSYAMYWVRQAPGKGLEWVSAIRSGGGSTDYADSVKGRFTISRDNSKNTLYLQMNSLRPEDTALYYCAADTLYTSLTWYSYWGQGTLVTVSS
**Query** Please tell me which of the two, I or II , has the higher reported koff value. Respond using the label that marks the chosen record.
**Result** II

(1) T0263018B11 T28G (VHH, name in Kabat numbering, FLAG3-His6 tagged) VHH: EVQLVESGGGVVQPGGSLRLSCAASGFGFSSYAMYWVRQAPGKGLEWVSAISSGGGSTDYADSVKGRFTISRDNSKNTLYLQMNSLRPEDTALYYCAADTLYTSLTWYSYWGQGTLVTVSS
(2) T0263018B11 S52P (VHH, name in Kabat numbering, FLAG3-His6 tagged) VHH: EVQLVESGGGVVQPGGSLRLSCAASGFTFSSYAMYWVRQAPGKGLEWVSAIPSGGGSTDYADSVKGRFTISRDNSKNTLYLQMNSLRPEDTALYYCAADTLYTSLTWYSYWGQGTLVTVSS
**Query** Looking at 1 and 2 , which one comes out lower in koff terms? Respond using the label that marks the chosen record.
**Result** 1
